Reported values of normalised response for individual entries
- Test system: CAL-85-1
- method: normalised response (% of control), CellTiter-Glo; higher = more viable cells (100 = DMSO, 0 = benzethonium chloride kill control)
- recorded-conditions: incubation time: 72 h
Numeric answer only, unit % assumed.

• CN(C)c1nc(N(C)C)nc(N(C)C)n1 [Altretamine] (1 nM) = 96.4
• Cc1ccc(NC(=O)c2ccc(CN3CCN(C)CC3)cc2)cc1Nc1nc(-c2cccnc2)cs1 [Masitinib] (10 nM) = 99.7
• CNC(=O)c1cccc(-c2ccc3c(N4CCOC[C@@H]4C)nc(N4CCOC[C@@H]4C)nc3n2)c1 [AZD2014] (1 nM) = 95
• c1ccc2c(CCNc3ccc(Nc4ccncc4)cc3)c[nH]c2c1 [Serdemetan] (1000 nM) = 125
• NC(=O)c1ccc(I)c([N+](=O)[O-])c1 [Iniparib] (1 nM) = 94.6

What value of normalised response on CAL-85-1 does S=P(N1CC1)(N1CC1)N1CC1 [Thio-TEPA] (5 nM) have? 99.2

Also check N#Cc1ccc(COC[C@H]2O[C@@H](n3c(NCc4ccc(Cl)c(Cl)c4)nc4c(N)ncnc43)[C@H](O)[C@@H]2O)cc1 (1 nM) 104

Also check CCc1c2c(nc3ccc(OC(=O)N4CCC(N5CCCCC5)CC4)cc13)-c1cc3c(c(=O)n1C2)COC(=O)[C@]3(O)CC [Irinotecan] (1 nM) 116

====

- System: MDA-MB-436
- method: normalised viability (% of control), CellTiter-Blue; higher = more viable cells (about 100 = DMSO control)
- recorded-conditions: 10000 nM; incubation time: 72 h
Just a reminder that ties go to f: only normalised viability strictly below 40% counts as t.

* Cc1cc(Nc2cc(CN3CCOCC3)c3nc(C)c(Cc4ccc(Cl)cc4F)n3n2)n[nH]1 | t
* COC(=O)c1ccc2c(c1)NC(=O)/C2=C(\Nc1ccc(N(C)C(=O)CN2CCN(C)CC2)cc1)c1ccccc1 | f
* CN(C)c1nc(N(C)C)nc(N(C)C)n1 | f

Quick check: normalised viability of COCC[n+]1c2c(n(Cc3cnccn3)c1C)C(=O)c1ccccc1C2=O under 40%? t

Also check CNC(=O)c1cc(Oc2ccc(NC(=O)Nc3ccc(Cl)c(C(F)(F)F)c3)c(F)c2)ccn1 f

Also check COc1cc(OC2CCN(C)CC2)ccc1Nc1ncc2c(n1)n(C1CCCC1)c(=O)n2C f

Also check CC(C)C[C@@H](C(=O)N[C@H](C(=O)OC1CCCC1)c1ccccc1)[C@H](O)C(=O)NO f

Also check O=C(/C=C/c1cccc(S(=O)(=O)Nc2ccccc2)c1)NO t

Also check S=P(N1CC1)(N1CC1)N1CC1 f

Also check CN(C)CCOc1ccc(/C(=C(/CCCl)c2ccccc2)c2ccccc2)cc1 f

Also check O=C(Nc1ccncc1)C(=O)c1cn(Cc2ccc(Cl)cc2)c2ccccc12 f

====

Reported values of drug sensitivity score for individual entries
- System: HCC1937
- method: drug sensitivity score (DSS), CellTox Green (DSS (AUC-based score)); higher = stronger drug effect (viability inhibition or cytotoxicity); extreme values may be limits of the assay
- recorded-conditions: incubation time: 72 h
Simply state the number, no unit and no words.

Examples from the recorded data:
* O=C(/C=C/c1cccc(S(=O)(=O)Nc2ccccc2)c1)NO [Belinostat] | 0
* Oc1ccc2c(c1)CC[C@H](c1ccccc1)[C@@H]2c1ccc(OCCN2CCCC2)cc1 [Lasofoxifene] | 0
* O=C(Nc1ccncc1)C(=O)c1cn(Cc2ccc(Cl)cc2)c2ccccc12 [Indibulin] | 0
* c1ccc2c(CCNc3ccc(Nc4ccncc4)cc3)c[nH]c2c1 [Serdemetan] | 0
* O=C(Nc1cccnc1)N1CCC(Cc2cccc(Oc3ccc(C(F)(F)F)cn3)c2)CC1 [PF-3845] | 0

Kindly review the next molecule as well.
What value of drug sensitivity score on HCC1937 does CNC(=O)c1cc(Oc2ccc(NC(=O)Nc3ccc(Cl)c(C(F)(F)F)c3)c(F)c2)ccn1 [Regorafenib] have? 3.47
